- TEST SUMMARY: NCI Yeast Anticancer Drug Screen. Data for the rad50 strain (AID 155);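 further: 0% = growth of vehicle-only cultures of the same strain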
- EXPERIMENTAL CONTEXT: S. cerevisiae rad50 strain growth inhibition, stronger effect = higher value; at 50.0 µM unless noted
Compounds without any hit were thinned out: in the full panel of roughly 79,000, 15% have a hit.
Reported growth inhibition values follow for various compounds
# value in %; strip the unit string

O=C1CN(Cc2cccc(Cl)c2)CC(=O)N2Cc3ccccc3CN12 : 34.4
Clc1nn2cnnc2c2ncccc12 : 2.8
C/C(CCCCCCCCCCCC/C(C)=N\Nc1ccc([N+](=O)[O-])cc1[N+](=O)[O-])=N/Nc1ccc([N+](=O)[O-])cc1[N+](=O)[O-] : -15.8

# input Write down growth inhibition measured for item C=CCCCC1CCCNC1=S (stereo unspecified)
# output 8.3

# input Give growth inhibition for the following compound: Brc1ccc(-c2ccccc2)cc1
# output 28.8

# input Could you please provide reported growth inhibition for NNC(=O)Cc1ccc(Cl)c2ccccc12 ? Thanks!
# output 5.8
